assay: CREB reporter modulators under forskolin, primary screen, cell-based, PC12, CRE-LacZ reporter, forskolin-stimulated (AID 1146); details: luminescence, 4.5 h, higher = more signal, called active from +8 up or from −8 down;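 further: PC12 cells with 6xCRE LacZ reporter stimulated by forskolin 10 µM; beta-galactosidase reporter signal reflecting CREB driven transcription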
This listing pairs compounds with measured z-score.
The reply should be a number, written without any unit.

compound | z-score
C=CCC(OC(C)=O)[C@@H]1[C@@H](N(Cc2cccc3ccccc23)C(=O)c2ccc(-c3ccccc3)cc2)c2cc(OCCCO)ccc2N1C(=O)c1ccc2ccccc2n1 (some centres undefined) | 0.481
Cc1c(NC(=O)/C(C#N)=C/c2ccc(Cl)cc2)c(=O)n(-c2ccccc2)n1C | -1.64
C=CCC(OC(C)=O)[C@@H]1[C@@H](N(Cc2ccc(-c3ccccc3)cc2)C(=O)c2cccc3ccccc23)c2cc(OCCCO)ccc2N1C(=O)c1ccc2ccccc2c1 (some centres undefined) | 0.108

API: the following record is the query input.
Query: Quick one: z-score of Cc1ccc(F)cc1S(=O)(=O)N[C@@H]1CCN(Cc2ccc3c(c2)OCO3)C1 ?
Result: -0.714
